Source listed as patent US20200277377A1.

test-target: T1, human CTLA-4 (Example 3 ELISAs, construct not stated) (human, UniProt P16410 36-161)
T1 sequence (looked up): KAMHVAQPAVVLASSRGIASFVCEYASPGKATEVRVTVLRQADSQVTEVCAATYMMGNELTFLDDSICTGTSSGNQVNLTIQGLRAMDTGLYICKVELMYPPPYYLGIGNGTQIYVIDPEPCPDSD
protocol-details: ELISA, antibody titrated on human CTLA-4, OD450
reported-endpoint: EC50 (read off the curve)

binder	reported-endpoint	value-reported
W3162-1.154.8 xAb.IgG1 (antibody, V domains shown, Chimeric: rat variable regions fused with constant region of human antibody (label xAb.IgG1)) VH: EVQLQQSGPEAGRPGSSVKISCKASGYTFTNYFMNWVKQSPGQGLEWIGRVDPENGRADYAEKFKKKATLTADTTSNTAYIHLSSLTSEDTATYFCARRAMDNYGFAYWGQGTLVTVSS VL: EIMLTQSPTIMAASLGEKITITCSANSSLSYMYWFQQKSGASPKLWVHGTSNLASGVPDRFSGSGSGTSYYLTINTMEAEDAATYFCHHWSNTQWTFGGGTKLELK	EC50 (read off the curve)	~0.05 nM
